Known solubility of a selection of molecules
protocol description: Aqueous solubility of the compound at pH 6.8
Assay type: physicochemical

{"structure notation": "CCc1nnc(-c2ccc(-c3ccccc3)cc2)n1-c1ccccc1F", "comparison symbol": "<", "solubility [µM]": 1}
{"structure notation": "CCc1nnc(-c2ccc(-c3ccccc3)cc2)n1-c1cccc2ccncc12", "comparison symbol": "=", "solubility [µM]": 11}
{"structure notation": "CCc1nnc(-c2ccc(-c3ccccc3)cc2)n1-c1cccc2cccnc12", "comparison symbol": "=", "solubility [µM]": 23}
{"structure notation": "CCc1nnc(-c2ccc(-c3ccccc3)cc2)n1-c1cccc2ncccc12", "comparison symbol": "=", "solubility [µM]": 9}
{"structure notation": "CCc1nnc(-c2ccc(-c3ccccc3)cc2)n1-c1cccc2cnccc12", "comparison symbol": "=", "solubility [µM]": 5}
{"structure notation": "CC(C)c1nnc(-c2ccc(-c3ccccc3)cc2)n1-c1ccccc1F", "comparison symbol": "<", "solubility [µM]": 1}
